- EXPERIMENTAL TARGET: C-C chemokine receptor type 1 (Homo sapiens, UniProt P32246)
- Sequence (P32246 whole entry): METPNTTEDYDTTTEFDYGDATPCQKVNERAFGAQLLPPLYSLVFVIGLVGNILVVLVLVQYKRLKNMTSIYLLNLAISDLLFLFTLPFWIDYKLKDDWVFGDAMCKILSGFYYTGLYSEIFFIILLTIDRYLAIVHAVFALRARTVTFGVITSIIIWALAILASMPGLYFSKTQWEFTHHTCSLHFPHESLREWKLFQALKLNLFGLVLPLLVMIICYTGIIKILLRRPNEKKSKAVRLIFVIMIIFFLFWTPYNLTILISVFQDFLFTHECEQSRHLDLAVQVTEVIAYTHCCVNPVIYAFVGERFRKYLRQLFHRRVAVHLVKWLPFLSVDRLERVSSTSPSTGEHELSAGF
- METHOD DESCRIPTION: Displacement of [125I]MIP-1-alpha from human recombinant CCR1 expressed in HEK293 cells
Listing: log10(IC50) of selected compounds
MEASUREMENT LABEL: log10(IC50) (log10 of the value in nM)

COMPOUND | EXPERIMENTAL TARGET | log10(IC50)
CCCN(Cc1ccc(Cl)cc1)C(=O)[C@H]1CCCN1C(=O)Nc1ccc(Cl)cc1 | C-C chemokine receptor type 1 (Homo sapiens, UniProt P32246) | 3.56
CN(Cc1ccc(Cl)cc1)C(=O)[C@H]1CCCN1C(=O)Nc1ccc(C#N)cc1 | C-C chemokine receptor type 1 (Homo sapiens, UniProt P32246) | 2.86
CN(Cc1ccc(Cl)cc1)C(=O)[C@H]1CCCN1C(=O)Nc1cccc(C(F)(F)F)c1 | C-C chemokine receptor type 1 (Homo sapiens, UniProt P32246) | 3.47
CC(c1ccc(Cl)cc1)N(C)C(=O)[C@H]1CCCN1C(=O)Nc1ccc(Cl)cc1 (stereo partly drawn) | C-C chemokine receptor type 1 (Homo sapiens, UniProt P32246) | 3.67
CCN(Cc1ccc(Cl)cc1)C(=O)[C@H]1CCCN1C(=O)Nc1ccc(Cl)cc1 | C-C chemokine receptor type 1 (Homo sapiens, UniProt P32246) | 2.43
Cc1ccc(NC(=O)N2CCC[C@@H]2C(=O)N(C)Cc2ccc(Cl)cc2)cc1 | C-C chemokine receptor type 1 (Homo sapiens, UniProt P32246) | 2.83
CN(Cc1ccc(F)cc1)C(=O)[C@H]1CCCN1C(=O)Nc1ccc(Cl)cc1 | C-C chemokine receptor type 1 (Homo sapiens, UniProt P32246) | 3.11
Cc1cc(C(F)(F)F)cc(C)c1NC(=O)N1CCC[C@@H]1C(=O)N(C)Cc1ccc(Cl)cc1 | C-C chemokine receptor type 1 (Homo sapiens, UniProt P32246) | 1.04
CN(Cc1ccc(Cl)cc1)C(=O)[C@H]1CCCN1C(=O)Nc1ccc(C(F)(F)F)cc1Cl | C-C chemokine receptor type 1 (Homo sapiens, UniProt P32246) | 2.08
CN(Cc1ccc(Cl)cc1)C(=O)[C@H]1CCCN1C(=O)Nc1ccc(F)cc1 | C-C chemokine receptor type 1 (Homo sapiens, UniProt P32246) | 2.85
Cc1cc(CN(C)C(=O)[C@H]2CCCN2C(=O)Nc2ccc(Cl)cc2)ccc1Cl | C-C chemokine receptor type 1 (Homo sapiens, UniProt P32246) | 3.60
O=C([C@H]1CCCN1C(=O)Nc1ccc(Cl)cc1)N(CCO)Cc1ccc(Cl)cc1 | C-C chemokine receptor type 1 (Homo sapiens, UniProt P32246) | 2.73
COc1ccc(NC(=O)N2CCC[C@@H]2C(=O)N(C)Cc2ccc(Cl)cc2)cc1 | C-C chemokine receptor type 1 (Homo sapiens, UniProt P32246) | 2.46
